These data points were gathered from the supplement of paper PMC10567573.

B1: C1orf137 (parent)
chain: LPQETNLTLKVCKPQAPQKLDPTL

Variants of: B1
Test: protein stability index of a GFP-peptide fusion (GPS, HEK-293T) (PSI 1-6); higher = more stable;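 note: lentivirally expressed fusions sorted by FACS into six bins by GFP to DsRed ratio, PSI derived from sequencing read proportions per bin multiplied by bin number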
Conditions: c terminus: a fixed tail appended
Recorded measurements of protein stability index, one per entry

[
  {
    "mutant label": "P2N",
    "protein stability index": 3.46
  },
  {
    "mutant label": "L24S",
    "protein stability index": 4.53
  },
  {
    "mutant label": "V11C",
    "protein stability index": 3.96
  },
  {
    "mutant label": "L7H",
    "protein stability index": 4.51
  },
  {
    "mutant label": "T5Q",
    "protein stability index": 4.33
  },
  {
    "mutant label": "L9F",
    "protein stability index": 4.05
  },
  {
    "mutant label": "K13Y",
    "protein stability index": 3.5
  },
  {
    "mutant label": "C12I",
    "protein stability index": 3.9
  },
  {
    "mutant label": "L20N",
    "protein stability index": 4.29
  },
  {
    "mutant label": "C12Q",
    "protein stability index": 4.1
  },
  {
    "mutant label": "Q18Y",
    "protein stability index": 3.13
  }
]
